# assayedTarget: Disintegrin and metalloproteinase domain-containing protein 17 (Homo sapiens, UniProt P78536)
# Sequence (P78536 whole entry, the tested form may be a part): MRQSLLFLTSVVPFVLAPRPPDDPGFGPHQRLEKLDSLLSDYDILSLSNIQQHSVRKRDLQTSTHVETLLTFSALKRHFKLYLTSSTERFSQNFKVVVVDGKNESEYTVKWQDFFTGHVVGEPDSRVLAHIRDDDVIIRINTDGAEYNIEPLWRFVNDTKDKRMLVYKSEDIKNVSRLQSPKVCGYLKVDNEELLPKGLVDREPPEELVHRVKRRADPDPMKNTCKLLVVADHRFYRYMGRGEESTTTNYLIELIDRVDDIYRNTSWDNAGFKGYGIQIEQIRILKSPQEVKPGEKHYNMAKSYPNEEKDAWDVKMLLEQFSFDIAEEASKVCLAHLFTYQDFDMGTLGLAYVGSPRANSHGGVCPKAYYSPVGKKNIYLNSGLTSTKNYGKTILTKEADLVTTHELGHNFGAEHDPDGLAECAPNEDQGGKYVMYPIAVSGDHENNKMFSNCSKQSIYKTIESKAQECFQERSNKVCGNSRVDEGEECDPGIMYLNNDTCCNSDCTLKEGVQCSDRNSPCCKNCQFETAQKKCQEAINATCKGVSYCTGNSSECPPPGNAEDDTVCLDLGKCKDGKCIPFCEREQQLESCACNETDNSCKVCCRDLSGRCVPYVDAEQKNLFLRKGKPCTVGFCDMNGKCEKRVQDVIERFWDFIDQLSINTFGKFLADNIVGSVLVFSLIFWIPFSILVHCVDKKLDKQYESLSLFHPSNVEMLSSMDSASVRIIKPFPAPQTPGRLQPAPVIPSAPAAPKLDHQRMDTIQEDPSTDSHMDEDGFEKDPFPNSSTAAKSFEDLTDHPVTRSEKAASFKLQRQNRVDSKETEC
# measurementDescription: Inhibitory activity against Tumor necrosis factor alpha-converting enzyme (TACE) in blood.
# Type: tissue-based
quantity: IC50 (nM)
Form entry: value (nM) — number only.

CNC(=O)[C@@H](NC(=O)[C@H](CC(C)C)[C@H](NC(=O)c1cccc2cccnc12)C(=O)NO)C(C)(C)C : 2

Please examine the following record next.
Query block: What value of IC50 has been reported for the following compound? CNC(=O)[C@@H](NC(=O)C(CC(C)C)C(NS(=O)(=O)c1cnc[nH]1)C(=O)NO)C(C)(C)C (single isomer, unassigned)
Result block: 9

* * *

# assayedTarget: Disintegrin and metalloproteinase domain-containing protein 17 (Homo sapiens, UniProt P78536)
# measurementDescription: Inhibition of TNF(tumor necrosis factor) in human blood
# Format: functional
quantity: pIC50
FYI, pIC50 means -log10 of a concentration in mol per litre.

The cases that follow already have their pIC50 on record.
CNC(=O)[C@@H](NC(=O)[C@H](CC(C)C)[C@H](Sc1ccc(S(C)(=O)=O)cc1)C(=O)NO)C(C)(C)C : 5.68
CNC(=O)[C@@H](NC(=O)[C@H](CC(C)C)[C@H](NS(=O)(=O)c1ccc2c(c1)CC(=O)N2)C(=O)NO)C(C)(C)C : 5.82
CNC(=O)[C@@H](NC(=O)[C@H](CC(C)C)[C@H](OC)C(=O)NO)C(C)(C)C : 5.30
CNC(=O)[C@@H](NC(=O)[C@H](CC(C)C)[C@H](Sc1cc(Cl)cc(Cl)c1)C(=O)NO)C(C)(C)C : 5.31
CC1(C)SCCN(S(=O)(=O)c2ccc(Oc3ccncc3)cc2)[C@H]1C(=O)NO : 4.78

Query block: What value of measured pIC50 is listed for CNC(=O)[C@@H](NC(=O)[C@H](CC(C)C)[C@@H](C(=O)NO)N(C)S(=O)(=O)c1cccc2cccnc12)C(C)(C)C ?
Result block: 5.35

Query block: What does the record list as pIC50 for CNC(=O)[C@@H](NC(=O)[C@H](CC(C)C)[C@H](NS(=O)(=O)c1ccc2ncnc(O)c2c1)C(=O)NO)C(C)(C)C ?
Result block: 6.55

* * *

Target protein (sequence): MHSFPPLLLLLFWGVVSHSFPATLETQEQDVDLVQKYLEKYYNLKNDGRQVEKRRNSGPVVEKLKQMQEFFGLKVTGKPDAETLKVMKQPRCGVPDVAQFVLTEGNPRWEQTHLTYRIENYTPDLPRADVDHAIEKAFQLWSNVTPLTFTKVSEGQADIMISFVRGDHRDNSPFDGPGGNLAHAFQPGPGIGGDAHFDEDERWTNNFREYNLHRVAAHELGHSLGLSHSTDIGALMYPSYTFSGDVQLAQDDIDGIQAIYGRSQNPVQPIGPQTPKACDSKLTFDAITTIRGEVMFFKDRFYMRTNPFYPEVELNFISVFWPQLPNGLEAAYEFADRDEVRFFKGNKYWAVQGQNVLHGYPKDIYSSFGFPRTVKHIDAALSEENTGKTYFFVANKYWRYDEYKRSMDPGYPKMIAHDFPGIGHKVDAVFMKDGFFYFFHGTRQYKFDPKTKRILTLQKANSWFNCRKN
Friendly reminder: IC50 below 3 nM is Condition met, at or above is Condition not met.

Check out these entries, answers already filled in.
CNC(=O)[C@@H](NC(=O)[C@H](CCCOCc1ccccc1)[C@H](OCc1ccc2nc(C)nc(O)c2c1)C(=O)NO)C(C)(C)C : Condition not met
CNC(=O)[C@@H](NC(=O)[C@H](CC(C)C)[C@H](NCc1cccc2cccnc12)C(=O)NO)C(C)(C)C : Condition met
CNC(=O)[C@@H](NC(=O)[C@H](CC(C)C)[C@H](NS(=O)(=O)c1cccc2cnccc12)C(=O)NO)C(C)(C)C : Condition met
CNC(=O)[C@@H](NC(=O)[C@H](CC(C)C)[C@H](NS(=O)(=O)c1ccc2ncccc2c1)C(=O)NO)C(C)(C)C : Condition met
CNC(=O)[C@@H](NC(=O)C(CC(C)C)C(C(=O)NO)C1CCCC1)C(C)(C)C (single isomer, unassigned) : Condition not met

Here is the next item to consider.
Query block: Problem: For the compound CNC(=O)[C@@H](NC(=O)[C@@H](CC(=O)NO)CC(C)C)C(C)(C)C , is IC50 under 3 nM?
Result block: Condition not met

* * *

# assayedTarget: Disintegrin and metalloproteinase domain-containing protein 17 (Homo sapiens)
# measurementDescription: Inhibition of TNF(tumor necrosis factor) in human blood
# Format: functional
quantity: IC50 (µM)
Report the value in µM with no unit label.

Below: 3 compounds and their reported IC50.
CNC(=O)[C@@H](NC(=O)C(CC(C)C)C(C(=O)NO)C1CCCC1)C(C)(C)C (single isomer, unassigned) : 8.8
CNC(=O)[C@@H](NC(=O)[C@H](CC(C)C)[C@H](NCc1cccc2cccnc12)C(=O)NO)C(C)(C)C : 34
CNC(=O)[C@@H](NC(=O)[C@H](CC(C)C)[C@H](NCc1ccc2ccccc2n1)C(=O)NO)C(C)(C)C : 5.7

Could you now look at the following compound, please?
Query block: Given the entry CNC(=O)[C@@H](NC(=O)[C@H](CC(C)C)[C@H](OCc1cccc2cccnc12)C(=O)NO)C(C)(C)C , report its measured IC50.
Result block: 8.2

* * *

The reader will find reported pIC50 values listed item by item below.
# assayedTarget: Disintegrin and metalloproteinase domain-containing protein 17 (Homo sapiens, UniProt P78536)
# measurementDescription: Inhibition of TNF(tumor necrosis factor) in human blood
# Type: functional
pIC50 is a log-scale quantity: -log10 of the concentration expressed in molar.

Below, each entry is followed by its recorded pIC50 result.
CNC(=O)[C@@H](NC(=O)[C@H](CC(C)C)[C@H](OCc1cccc2ccccc12)C(=O)NO)C(C)(C)C : 5.12
CNC(=O)[C@@H](NC(=O)[C@H](CC(C)C)[C@H](OCCc1ccc2sc(C)nc2c1)C(=O)NO)C(C)(C)C : 5.46
CNC(=O)[C@@H](NC(=O)C(CC(C)C)C(NS(=O)(=O)c1ccccc1)C(=O)NO)C(C)(C)C (single isomer, unassigned) : 5.89
CNC(=O)[C@@H](NC(=O)[C@H](CC(C)C)[C@H](NS(=O)(=O)c1cccs1)C(=O)NO)C(C)(C)C : 5.55
CNC(=O)[C@@H](NC(=O)[C@H](CC(C)C)[C@H](Sc1ccc2c(c1)CCC(=O)N2C)C(=O)NO)C(C)(C)C : 5.18

Query block: Quick one: pIC50 of CNC(=O)[C@@H](NC(=O)[C@H](CC(C)C)[C@H](NCc1ccc2ccccc2c1)C(=O)NO)C(C)(C)C ?
Result block: 5.17

Query block: State the recorded pIC50 for this entry: CNC(=O)[C@@H](NC(=O)[C@H](CC(C)C)[C@H](OCc1ccc2oc(=O)ccc2c1)C(=O)NO)C(C)(C)C
Result block: 5.44

Query block: // query pIC50 value for entry CNC(=O)[C@@H](NC(=O)[C@H](CC(C)C)[C@@H](C(=O)NO)N1CCOCC1)C(C)(C)C
Result block: 5.52

Query block: Requested field: pIC50. Item: CNC(=O)[C@@H](NC(=O)[C@H](CC(C)C)[C@H](NS(=O)(=O)c1cccnc1)C(=O)NO)C(C)(C)C
Result block: 5.42

Query block: So what's the measured pIC50 for this one? CNC(=O)[C@@H](NC(=O)[C@H](CC(C)C)[C@H](OCc1cc2ccccc2n(C)c1=O)C(=O)NO)C(C)(C)C
Result block: 5.63

Query block: Fill in the blank: the reported pIC50 of CNC(=O)[C@@H](NC(=O)[C@H](CC(C)C)[C@H](NS(=O)(=O)CCc1ccncc1)C(=O)NO)C(C)(C)C is ____.
Result block: 6.15

Query block: Please report the recorded pIC50 for CNC(=O)[C@@H](NC(=O)[C@H](CC(C)C)[C@H](Sc1ccc(F)cc1Cl)C(=O)NO)C(C)(C)C .
Result block: 4.96

* * *

# assayedTarget: Neutrophil collagenase (Homo sapiens, UniProt P22894)
# Sequence (P22894 whole entry): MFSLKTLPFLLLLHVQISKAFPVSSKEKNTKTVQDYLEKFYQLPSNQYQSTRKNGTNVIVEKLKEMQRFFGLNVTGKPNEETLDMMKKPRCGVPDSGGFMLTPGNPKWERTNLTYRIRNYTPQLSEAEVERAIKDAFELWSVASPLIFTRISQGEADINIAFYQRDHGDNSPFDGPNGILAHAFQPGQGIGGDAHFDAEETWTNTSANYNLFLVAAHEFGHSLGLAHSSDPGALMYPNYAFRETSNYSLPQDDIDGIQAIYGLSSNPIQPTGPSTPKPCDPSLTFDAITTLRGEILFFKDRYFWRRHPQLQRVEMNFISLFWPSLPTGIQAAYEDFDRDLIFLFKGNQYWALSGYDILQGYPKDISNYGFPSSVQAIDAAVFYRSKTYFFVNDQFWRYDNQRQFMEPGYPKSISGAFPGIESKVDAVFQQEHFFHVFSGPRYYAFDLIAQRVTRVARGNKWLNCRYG
# measurementDescription: Inhibition of MMP-8 (matrix metalloprotease-8)
Each record here notes measured IC50.
Express the result in nM but write the number alone.

Sample answers from the record:
CNC(=O)[C@@H](NC(=O)C(CC(C)C)C(C(=O)NO)C1CCCC1)C(C)(C)C (single isomer, unassigned) : 20
CNC(=O)[C@@H](NC(=O)[C@H](CC(C)C)[C@H](NCc1cccc2cccnc12)C(=O)NO)C(C)(C)C : 0.2
C=CCC(C(=O)NO)C(CC(C)C)C(=O)N[C@@H](Cc1ccccc1)C(=O)NC (single isomer, unassigned) : 3

Please find the next compound below.
Query block: // IC50 lookup, key: CNC(=O)[C@@H](NC(=O)[C@H](CC(C)C)[C@H](NS(=O)(=O)c1ccc2ncnc(O)c2c1)C(=O)NO)C(C)(C)C
Result block: 3.7
